Reference for the values: patent US11179389B2

target: PI3Kdelta (Homo sapiens (Human), UniProt O00329); assay: HTRF PI3K biochemical assay, delta isoform; details: 0.3 nM enzyme, 100 uM ATP, 5 uM PIP2, form screened per table (Neutral or TFA salt)
Sequence (O00329 whole entry, canonical isoform): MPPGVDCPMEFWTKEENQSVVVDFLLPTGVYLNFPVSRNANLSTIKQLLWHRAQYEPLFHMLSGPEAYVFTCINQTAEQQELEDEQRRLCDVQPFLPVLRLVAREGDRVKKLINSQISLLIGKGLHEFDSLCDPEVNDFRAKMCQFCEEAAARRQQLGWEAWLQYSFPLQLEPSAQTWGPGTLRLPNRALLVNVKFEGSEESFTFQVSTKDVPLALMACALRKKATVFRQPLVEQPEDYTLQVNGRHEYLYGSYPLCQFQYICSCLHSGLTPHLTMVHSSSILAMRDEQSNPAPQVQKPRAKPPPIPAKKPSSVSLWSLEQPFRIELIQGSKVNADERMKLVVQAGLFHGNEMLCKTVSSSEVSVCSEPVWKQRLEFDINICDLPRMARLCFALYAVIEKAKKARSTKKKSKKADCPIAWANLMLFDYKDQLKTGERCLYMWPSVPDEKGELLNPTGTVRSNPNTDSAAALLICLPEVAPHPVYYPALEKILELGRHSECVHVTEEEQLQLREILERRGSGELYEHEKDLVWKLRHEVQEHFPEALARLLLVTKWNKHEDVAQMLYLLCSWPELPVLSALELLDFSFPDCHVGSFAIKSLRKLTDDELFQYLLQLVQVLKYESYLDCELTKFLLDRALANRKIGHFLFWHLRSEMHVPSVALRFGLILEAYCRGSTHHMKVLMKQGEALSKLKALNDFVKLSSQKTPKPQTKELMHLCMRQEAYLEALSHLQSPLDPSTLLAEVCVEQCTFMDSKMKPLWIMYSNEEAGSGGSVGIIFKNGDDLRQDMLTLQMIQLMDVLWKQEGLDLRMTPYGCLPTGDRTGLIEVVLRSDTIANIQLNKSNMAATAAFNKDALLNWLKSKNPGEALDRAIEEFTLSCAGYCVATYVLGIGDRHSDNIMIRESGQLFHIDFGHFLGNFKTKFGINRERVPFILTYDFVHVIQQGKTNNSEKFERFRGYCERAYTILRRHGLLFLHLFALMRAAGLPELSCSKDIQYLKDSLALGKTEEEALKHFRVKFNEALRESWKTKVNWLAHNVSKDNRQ
Sequence (P27986 whole entry partner, canonical isoform): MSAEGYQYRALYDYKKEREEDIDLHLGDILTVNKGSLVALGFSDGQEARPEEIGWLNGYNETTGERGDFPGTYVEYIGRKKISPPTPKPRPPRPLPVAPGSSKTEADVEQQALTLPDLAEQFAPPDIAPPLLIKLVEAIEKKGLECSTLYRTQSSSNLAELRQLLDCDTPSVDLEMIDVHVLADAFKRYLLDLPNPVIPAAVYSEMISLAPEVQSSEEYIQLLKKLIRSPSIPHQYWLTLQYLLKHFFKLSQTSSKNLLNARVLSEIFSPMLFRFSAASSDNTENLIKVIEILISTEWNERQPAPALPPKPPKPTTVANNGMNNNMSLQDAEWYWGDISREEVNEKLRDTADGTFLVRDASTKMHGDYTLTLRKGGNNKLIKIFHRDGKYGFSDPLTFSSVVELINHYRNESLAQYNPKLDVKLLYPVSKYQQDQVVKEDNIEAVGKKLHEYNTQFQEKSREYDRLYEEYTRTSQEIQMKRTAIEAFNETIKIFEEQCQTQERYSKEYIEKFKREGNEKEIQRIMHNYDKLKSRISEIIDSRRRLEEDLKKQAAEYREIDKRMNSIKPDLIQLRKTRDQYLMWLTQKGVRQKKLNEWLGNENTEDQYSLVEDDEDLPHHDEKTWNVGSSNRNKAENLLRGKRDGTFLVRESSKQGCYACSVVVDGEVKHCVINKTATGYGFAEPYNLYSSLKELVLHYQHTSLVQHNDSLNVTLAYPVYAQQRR
Give measured pIC50 for each item. Keep answers brief.
Recall that pIC50 is obtained by taking minus log10 of the concentration measured in molar.

Reported pIC50 ( C[C@@H]1CN(c2cnc(C#N)c(-c3cnn(C)c3)n2)CCN1C(=O)N1CCCC1 ) = 6.74

So for C[C@@H]1CN(c2cnc(C#N)c(-c3cnn(C)c3)n2)CCN1C(=O)C1(C)CC1 , the logged pIC50 turned out to be 6.55

Record Cn1cc(-c2nc(N3CCC4(CC3)COC(=O)N4CC3CCC3)cnc2C#N)cn1 , field pIC50: 7.74

Reported pIC50 ( Cn1cc(-c2nc(N3CCC4(CC3)COC(=O)N4CC3(C)COC3)cnc2C#N)cn1 ) = 7.35

// recorded pIC50 for C[C@@H]1CN(c2cnc(C#N)c(-c3cnn(C)c3)n2)CCN1C(=O)C1CC1 : 7.48

Consider CC(C)C[C@@H]1CN(c2cnc(C#N)c(-c3cnn(C)c3)n2)CCN1C(=O)C1CC1 . Its measured pIC50 is 7.41

Memo: Cn1cc(-c2nc(N3CCC4(CCC(=O)N4CC(F)(F)F)CC3)cnc2C#N)cn1 , reported pIC50: 7.43

====

For each of the compounds below, state its IC50.
biological target: PI3Kdelta (Homo sapiens (Human), UniProt O00329); assay: HTRF PI3K biochemical assay, delta isoform; conditions: 0.3 nM enzyme, 100 uM ATP, 5 uM PIP2, form screened per table (Neutral or TFA salt)
Reply with just the number (in nM).

The compound CC(N1C(=O)N(CCN(C)C)CC12CCN(c1cnc(C#N)c(-c3cnn(C)c3)n1)CC2)C(F)(F)F (stereo not shown) [Compound 1-5] showed IC50 equal to 7.2

Item: Cn1cc(-c2nc(N3CCC4(CC3)NC(=O)OC4CC3CC3)cnc2C#N)cn1 (single isomer, unassigned) [Compound 1-7] | IC50: 55

Reported IC50 for C[C@@H]1CN(c2cnc(C#N)c(-c3cnn(C)c3)n2)CCN1C(=O)NCC1CC1 [Compound 1-34] was 210

# IC50 of C[C@@H]1CN(c2cnc(C#N)c(-c3cnn(C)c3)n2)CCN1C(=O)[C@@H]1C[C@@H]1F [Compound 1-29] = 29

Record COC(=O)N1CCN(c2cnc(C#N)c(-c3cnn(C)c3)n2)C[C@H]1C [Compound 1-38] . Reported IC50: 210

For Cn1cc(-c2nc(N3CCC4(CCC(=O)N4CC4CC4)CC3)cnc2C#N)cn1 [Compound 1-1] the compound record lists IC50 as 5.4

Just so you know, measured IC50 for Cn1cc(-c2nc(N3CCC(C)(N4CCOCC4)CC3)cnc2C#N)cn1 [Compound 1-25] came out at 52

The measured IC50 associated with C[C@@H]1CN(c2cnc(C#N)c(-c3cnn(C)c3)n2)CCN1C(=O)N1CC2(COC2)C1 [Compound 1-33] reads 300

The compound listed as Cn1cc(-c2nc(N3CCC4(CCC(=O)N4CC4CC(F)(F)C4)CC3)cnc2C#N)cn1 [Compound 1-20] shows IC50 equal to 18

Entry CCC1C(=O)NCC12CCN(c1cnc(C#N)c(-c3cnn(C)c3)n1)CC2 (single isomer, unassigned) [Compound 1-8] ; IC50 = 60

Value of IC50 reported for the compound C[C@@H]1CN(c2cnc(C#N)c(-c3cnn(C)c3)n2)CCN1C(=O)N1CCC1 [Compound 1-37] is 53

Per the record, CO[C@H]1C[C@@H](C(=O)N2CCN(c3cnc(C#N)c(-c4cnn(C)c4)n3)C[C@H]2C)C1 [Compound 1-27] has IC50 of 100

# IC50 (compound: [2H]C([2H])([2H])n1cc(-c2nc(N3CCN(C(=O)C4CC4)[C@H](C)C3)cnc2C#N)cn1 [Compound 1-18] ) is 16

# IC50 (compound: Cn1cc(-c2nc(N3CCC4(CC3)COCC(=O)N4CC3CC3)cnc2C#N)cn1 [Compound 1-24] ) is 10

Sample Cn1cc(-c2nc(N3CCC4(CC3)CNC(=O)N4CC3CC3)cnc2C#N)cn1 [Compound 1-3] ; IC50 observed: 9.7

Memo: C[C@@H]1C[C@H]1C(=O)N1CCN(c2cnc(C#N)c(-c3cnn(C(F)F)c3)n2)C[C@H]1C [Compound 1-17] , reported IC50: 73
